Catalogue of protein stability index values
# experimentSummary: protein stability index of a GFP-peptide fusion (yeast GPS) (PSI 1-4); higher = more stable; sorted into four equal gates, so the index is relative within each strain
# setupConditions: san1∆
// keep it numeric: no unit symbol after the value

ELTKTKSSLYSAQDLLD [YIL149C/MLP2] :: 2.6
LLEKANNQQRLLLKKLD [SMC3] :: 2.28
IQISKLHYTPIEDLWQF [RPC82] :: 2.09
ETFISSMTATADVLAMA [RIP1] :: 3.13
KERSDGKRHIFDVNTLC [CDC53] :: 1.26

Here's the next entry for you.
Query: Complete the entry with protein stability index for HNGSHRTVAGFSNVELP [ARP7]
Result: 2.72

----------
# experimentSummary: protein stability index of a GFP-peptide fusion (yeast GPS) (PSI 1-4); higher = more stable; sorted into four equal gates, so the index is relative within each strain
# setupConditions: san1∆
property: protein stability index
Note: the reply should be a number with no unit written.

Reference set, count: 4
HELPRYGITHGLTNWAA [RPL5] :: 2.47
NNTTTTSTKPSFSFGAP [YOR098C/NUP1] :: 3.04
QKYNQIQKQIETIQADL [SMC2] :: 2.6
KKNNLEFGTYGKYVIAG [RPN14] :: 1.79

Query: Using known records, supply protein stability index for KAKFTSLAVRSLQDRSS [YCS4]
Result: 2.13

Query: Kindly indicate its recorded protein stability index. Item: YWYEQDSAKEWPQSKNC [RPB3]
Result: 2.98

Query: Complete the entry with protein stability index for NQIADLSGKFSTIPTRE [ROX3]
Result: 2.81

----------
# experimentSummary: protein stability index of a GFP-peptide fusion (yeast GPS) (PSI 1-4); higher = more stable; sorted into four equal gates, so the index is relative within each strain
# setupConditions: pdr5∆
property: protein stability index
Just the number.

Would you please look over these solved cases?
AISKKDLEEVKRFQVLY [SEC65] :: 3.02
AMIDAGALEEITKDHKV [FAS2] :: 2.99
KAKAQAQAQAQAQAQVY [PGD1] :: 3.26
GVFDPASYSKYLIDHIK [RPL22B] :: 3.1
PSTRCKLKLLRMERIKD [RPT2] :: 1.68

Kindly consider the entry below.
Query: Supply reported protein stability index belonging to this sequence: GAASNRTKFVRSLVREI [RPL36A]
Result: 2.59

----------
# experimentSummary: protein stability index of a GFP-peptide fusion (yeast GPS) (PSI 1-4); higher = more stable; sorted into four equal gates, so the index is relative within each strain
# setupConditions: pdr5∆
property: protein stability index

Example sequences with recorded protein stability index:
RVSLQDIKDFADKVYTK [QCR2] :: 3.07
NDEGVWDLVDERTKQRT [PRP8] :: 3.37
VHPVNEREPVPLGILHI [RRP45] :: 2.63
VFSHAQTAVTCESCSTI [RPS27A] :: 1.2
KTARGKAALERLKVFEG [RPL16A] :: 2.37

Query: // Input: SAENRDEKDYLTNQQPK [CSE2] . Output its protein stability index only.
Result: 2.79

----------
# experimentSummary: protein stability index of a GFP-peptide fusion (yeast GPS) (PSI 1-4); higher = more stable; sorted into four equal gates, so the index is relative within each strain
# setupConditions: ubr1∆
Short version: protein stability index at least 2 is true (1), less is false (0).

As a guide, the following entries are already answered.
LVSEARTLWPEFIPPDP [SSN8] :: true (1)
NGDEGDDENEPKRKRRL [YOR098C/NUP1] :: true (1)

Turning now to a further sequence:
Query: Hello, I need to know if LADKLENYEGKQDKTLQ [YIL149C/MLP2] has measured protein stability index not below 2. Thanks!
Result: true (1)
